Target: T1, NOD mouse SIRP-α D1 domain (mouse (NOD strain))
T1 chain: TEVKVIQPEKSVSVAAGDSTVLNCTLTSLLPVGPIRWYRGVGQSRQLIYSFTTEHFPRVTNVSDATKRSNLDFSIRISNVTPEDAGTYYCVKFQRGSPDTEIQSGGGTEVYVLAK
Test: SPR, Langmuir fit
koff listing for selected binders.

binder | koff [s⁻¹]
S21 (scFv, V domains shown, also called clone 21; scFv-Fc form of AB21) VH: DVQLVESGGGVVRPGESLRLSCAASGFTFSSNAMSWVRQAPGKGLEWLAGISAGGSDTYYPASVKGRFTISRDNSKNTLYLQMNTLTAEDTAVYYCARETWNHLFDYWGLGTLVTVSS VL: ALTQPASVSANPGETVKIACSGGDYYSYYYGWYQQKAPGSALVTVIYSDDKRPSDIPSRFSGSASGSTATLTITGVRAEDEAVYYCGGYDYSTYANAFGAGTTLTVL | 0.00264
S60 (scFv, V domains shown, also called clone 60) VH: DVQLVDSGGGVVRPGESLRLSCAASGFTFSSYAMSWVRQAPGKGLEWLAGISAGGSDTYYIDSVKGRFTISRDNSKNSLYLQMNSLTAEDTAVYYCARETWNHLFDYWGLGTLVTVSS VL: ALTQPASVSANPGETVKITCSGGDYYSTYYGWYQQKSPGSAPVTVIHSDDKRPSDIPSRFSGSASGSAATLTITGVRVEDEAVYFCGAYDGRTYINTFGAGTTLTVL | 0.000726

Cited source for all entries: patent US20210363269A1
